- assay_system: TbrPDEB1 (Trypanosoma brucei)
- Construct: The TbrPDEB1 catalytic domain phosphodiesterase activity assays were conducted based on a method reported by Sijm et al
- Sequence (Q8WQX9 565-918 limits assumed): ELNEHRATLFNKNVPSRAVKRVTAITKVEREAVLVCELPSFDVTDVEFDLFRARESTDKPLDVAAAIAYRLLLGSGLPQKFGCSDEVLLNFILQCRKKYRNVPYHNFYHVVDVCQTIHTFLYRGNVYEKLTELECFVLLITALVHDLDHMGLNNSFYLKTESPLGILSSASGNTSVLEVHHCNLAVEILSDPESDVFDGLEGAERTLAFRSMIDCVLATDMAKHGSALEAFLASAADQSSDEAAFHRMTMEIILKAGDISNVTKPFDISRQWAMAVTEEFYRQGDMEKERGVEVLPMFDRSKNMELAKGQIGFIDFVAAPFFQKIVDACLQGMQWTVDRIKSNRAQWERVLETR
- experiment: TbrPDEB1 catalytic domain phosphodiesterase activity assay (PDELight HTS cAMP kit)
- Assay type: biochemical
- measurement_parameters: full dose-response, mean ± S.E.M.
pKi: −log10 of the molar value.
readout_label: pKi

[A] COC(=O)c1cnc(Oc2cc(C3=NN(C(C)C)C(=O)[C@@H]4CC=CC[C@H]34)ccc2OC)cn1 (relative stereo)
[B] COc1ccc(C2=NN(C(C)C)C(=O)[C@H]3CC=CC[C@@H]23)cc1Oc1ccc(Cn2ccnc2)cn1 (relative stereo)
# returns the entry with the larger pKi; inputs A and B Refer to your chosen item by its label in the answer.
A
(A: 6.22, B: 5.89)

###

- assay_system: TbrPDEB1 (Trypanosoma brucei)
- Construct: The TbrPDEB1 catalytic domain phosphodiesterase activity assays were conducted based on a method reported by Sijm et al
- Sequence (Q8WQX9 565-918 limits assumed): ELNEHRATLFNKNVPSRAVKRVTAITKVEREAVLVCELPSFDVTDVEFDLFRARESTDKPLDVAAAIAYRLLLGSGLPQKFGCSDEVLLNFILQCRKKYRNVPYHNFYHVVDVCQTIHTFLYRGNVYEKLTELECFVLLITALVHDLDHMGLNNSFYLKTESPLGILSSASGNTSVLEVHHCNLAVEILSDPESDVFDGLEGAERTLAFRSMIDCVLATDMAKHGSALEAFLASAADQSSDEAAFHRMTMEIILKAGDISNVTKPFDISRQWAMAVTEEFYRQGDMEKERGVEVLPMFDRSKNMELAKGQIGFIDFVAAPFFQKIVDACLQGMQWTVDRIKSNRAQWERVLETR
- experiment: TbrPDEB1 catalytic domain phosphodiesterase activity assay (PDELight HTS cAMP kit)
- Assay type: biochemical
- measurement_parameters: single point assay at 10 μM inhibitor; read-out: TbrPDEB1 (% inh.)
Reported inhibition at 10 µM by item:

Previously resolved entries follow.
>  <compound>
COC(=O)c1cnc(Oc2cc(C3=NN(C(C)C)C(=O)[C@@H]4CC=CC[C@H]34)ccc2OC)cn1 (relative stereo)

>  <value>
~50%

$$$$
>  <compound>
COc1ccc(C2=NN(C(C)C)C(=O)[C@H]3CC=CC[C@@H]23)cc1Oc1nccs1 (relative stereo)

>  <value>
12%

$$$$
>  <compound>
CCCCNC(=O)c1cccc(Oc2cc(C3=NN(C(C)C)C(=O)[C@@H]4CC=CC[C@H]34)ccc2OC)n1 (relative stereo)

>  <value>
> 50%

$$$$
>  <compound>
COc1ccc(C2=NN(C(C)C)C(=O)[C@@H]3CC=CC[C@H]23)cc1Oc1cccc(C(N)=O)n1 (relative stereo)

>  <value>
≥ 50%

$$$$

Form field: inhibition at 10 µM recorded for COc1ccc(C2=NN(C(C)C)C(=O)[C@@H]3CC=CC[C@H]23)cc1Oc1cccc(C(=O)NCc2ccco2)n1 (relative stereo) with TbrPDEB1 (Trypanosoma brucei) (enter value)
> 50%

###

- assay_system: TbrPDEB1 (Trypanosoma brucei, UniProt Q8WQX9)
- Construct: The TbrPDEB1 catalytic domain phosphodiesterase activity assays were conducted based on a method reported by Sijm et al
- experiment: TbrPDEB1 catalytic domain phosphodiesterase activity assay (PDELight HTS cAMP kit)
- Format: biochemical
- measurement_parameters: full dose-response, mean ± S.E.M.
readout_label: Ki (µM)

>  <compound>
CCCCNC(=O)c1cccc(Oc2cc(C3=NN(C(C)C)C(=O)[C@@H]4CC=CC[C@H]34)ccc2OC)n1 (relative stereo)

>  <Ki / µM>
1.3

$$$$
>  <compound>
COC(=O)c1ccc(Oc2cc(C3=NN(C(C)C)C(=O)[C@@H]4CC=CC[C@H]34)ccc2OC)nc1 (relative stereo)

>  <Ki / µM>
0.8

$$$$
>  <compound>
COc1ccc(C2=NN(C(C)C)C(=O)[C@@H]3CC=CC[C@H]23)cc1Oc1cccc(C(N)=O)n1 (relative stereo)

>  <Ki / µM>
0.8

$$$$
>  <compound>
COc1ccc(C2=NN(C(C)C)C(=O)[C@@H]3CC=CC[C@H]23)cc1Oc1cccc(C(=O)NCc2ccco2)n1 (relative stereo)

>  <Ki / µM>
1

$$$$
